Where these numbers come from: paper doi:10.1101/2024.06.17.599268

Target: T1, Mical1 MO-CH-LIM (residues 1-781) (human, UniProt Q8TDZ2 1-781)
T1 sequence: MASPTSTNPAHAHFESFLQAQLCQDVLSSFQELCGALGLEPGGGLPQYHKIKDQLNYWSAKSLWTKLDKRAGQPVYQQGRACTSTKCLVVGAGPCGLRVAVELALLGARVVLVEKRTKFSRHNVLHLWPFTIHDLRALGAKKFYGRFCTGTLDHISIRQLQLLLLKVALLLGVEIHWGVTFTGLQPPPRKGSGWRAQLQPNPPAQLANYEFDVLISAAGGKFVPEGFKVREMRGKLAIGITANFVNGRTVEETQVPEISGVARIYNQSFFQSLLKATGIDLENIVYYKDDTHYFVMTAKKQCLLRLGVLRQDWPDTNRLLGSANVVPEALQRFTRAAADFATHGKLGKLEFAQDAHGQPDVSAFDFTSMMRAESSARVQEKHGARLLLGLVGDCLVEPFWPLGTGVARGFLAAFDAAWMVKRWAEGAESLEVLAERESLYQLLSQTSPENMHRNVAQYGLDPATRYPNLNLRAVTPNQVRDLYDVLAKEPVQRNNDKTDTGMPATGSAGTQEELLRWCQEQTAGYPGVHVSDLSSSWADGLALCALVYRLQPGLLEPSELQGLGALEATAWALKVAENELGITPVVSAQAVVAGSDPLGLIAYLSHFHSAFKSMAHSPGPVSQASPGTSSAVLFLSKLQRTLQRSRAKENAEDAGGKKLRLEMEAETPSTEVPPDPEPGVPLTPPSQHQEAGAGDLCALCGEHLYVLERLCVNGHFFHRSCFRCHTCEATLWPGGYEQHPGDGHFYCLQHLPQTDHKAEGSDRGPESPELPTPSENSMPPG
Assay: ITC
QUANTITY_NAME: fold reduction in affinity against wild-type bMERB (fold)
Numbers only, in fold.

bMERB L977A_V978A (domain or fragment) KEEEMKRFCKAQTIQRRLNEIEAALRELEAEGVKLELALRRQSSSPEQQKKLWVGQLLQAADKKNSLVAEEAELMITVQELNLEEKQWQLDQELRGYMNREENLKTAADRQAEDQVLRKLVDLVNQRDALIRFQEERRLSELALGTGAQG = 6

Next binder, please.
Consider the binder bMERB_(V978A) (domain or fragment) KEEEMKRFCKAQTIQRRLNEIEAALRELEAEGVKLELALRRQSSSPEQQKKLWVGQLLQLADKKNSLVAEEAELMITVQELNLEEKQWQLDQELRGYMNREENLKTAADRQAEDQVLRKLVDLVNQRDALIRFQEERRLSELALGTGAQG and give its measured fold reduction in affinity against wild-type bMERB. 2
